AUC values for the compounds below.
Test system: Mus musculus
Assay: AUC in mouse at 5 mg/kg, iv
Format: ADME, organism-based, Plasma
Set-up: dose 5 mg/kg, route intravenous
Conditions: in vivo

| COMPOUND | AUC |
| --- | --- |
| Cc1ccc(N2CCN(C(=O)[C@H](C)Cc3ccc(Cl)cc3)CC2)c([C@@H](N)CC(C)C)c1 | 2560 ng·h/mL |
| COc1cc(Cl)ccc1CC(C)C(=O)N1CCN(c2ccc(C(F)(F)F)cc2[C@@H](N)CC(C)C)CC1 (some centres not stated) | 1450 ng·h/mL |

---

Molecular target: Melanocortin receptor 5 (Homo sapiens)
Sequence (P33032 whole entry): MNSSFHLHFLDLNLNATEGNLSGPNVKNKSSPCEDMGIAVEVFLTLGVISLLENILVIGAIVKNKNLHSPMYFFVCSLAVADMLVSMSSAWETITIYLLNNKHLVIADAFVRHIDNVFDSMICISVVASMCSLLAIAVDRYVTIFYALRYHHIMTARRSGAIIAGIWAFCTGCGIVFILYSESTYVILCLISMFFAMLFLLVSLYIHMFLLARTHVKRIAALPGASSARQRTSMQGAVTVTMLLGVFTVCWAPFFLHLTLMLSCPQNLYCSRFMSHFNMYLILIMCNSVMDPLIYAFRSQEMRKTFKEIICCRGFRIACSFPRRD

| SMILES NOTATION | Ki / nM |
| --- | --- |
| Cc1ccc(N2CCN(C(=O)[C@H](C)Cc3ccc(Cl)cc3)CC2)c([C@@H](N)CC(C)C)c1 | 1000 |

---

Molecular target: Melanocortin receptor 4 (Homo sapiens)
Sequence (P32245 whole entry): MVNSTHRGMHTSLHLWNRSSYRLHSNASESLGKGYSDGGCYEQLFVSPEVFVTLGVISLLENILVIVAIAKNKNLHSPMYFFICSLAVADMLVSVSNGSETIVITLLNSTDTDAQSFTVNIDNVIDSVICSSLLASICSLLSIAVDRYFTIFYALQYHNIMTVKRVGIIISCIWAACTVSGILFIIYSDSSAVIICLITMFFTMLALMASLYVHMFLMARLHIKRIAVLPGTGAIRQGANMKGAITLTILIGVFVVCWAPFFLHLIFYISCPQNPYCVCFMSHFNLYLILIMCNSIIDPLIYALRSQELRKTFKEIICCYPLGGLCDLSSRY
Test: Displacement of [125I]NDP-MSH from human MC4R stably expressed in HEK293 cells
Assay type: cell-based
pKi: −log10 of the molar value.
The entries below come with measured pKi values attached.
READOUT LABEL: pKi

| MOLECULE | READOUT LABEL | RECORDED NUMBER |
| --- | --- | --- |
| CCOc1cccc(CC(C)C(=O)N2CCN(c3ccc(C(F)(F)F)cc3[C@@H](N)CC(C)C)CC2)c1 (some centres undefined) | pKi | 5.66 |
| CC(C)C[C@H](N)c1cc(C(F)(F)F)ccc1N1CCN(C(=O)C(C)Cc2ccc(Cl)c(Cl)c2)CC1 (stereo in doubt; 8j) | pKi | 6.92 |
| Cc1ccc(OCC(=O)N2CCN(c3ccc(C(F)(F)F)cc3[C@@H](N)CC(C)C)CC2)c(C)c1 | pKi | 5.40 |
| CC(C)C[C@H](N)c1cc(C(F)(F)F)ccc1N1CCN(C(=O)C(C)Cc2cccc(Cl)c2)CC1 (some centres undefined) | pKi | 6.04 |

---

Read-out record for Melanocortin receptor 4 (Homo sapiens): Ki

| COMPOUND | Ki |
| --- | --- |
| CC(C)C[C@H](N)c1cc(C(F)(F)F)ccc1N1CCN(C(=O)COc2ccccc2)CC1 | > 10 µM |
| CC(C)C[C@H](N)c1cc(F)ccc1N1CCN(C(=O)C(C)Cc2ccc(Cl)cc2)CC1 (stereo partly drawn) | 0.39 µM |
| COc1cc(Cl)ccc1CC(C)C(=O)N1CCN(c2ccc(Cl)cc2[C@@H](N)CC(C)C)CC1 (stereo partly drawn) | 0.0091 µM |
| COc1ccc(OCC(=O)N2CCN(c3ccc(C(F)(F)F)cc3[C@@H](N)CC(C)C)CC2)cc1 | 3.8 µM |
| CC(C)C[C@H](N)c1ccccc1N1CCN(C(=O)[C@H](C)Cc2ccc(Cl)cc2F)CC1 | 0.067 µM |
| CC(C)C[C@H](N)c1cc(Cl)ccc1N1CCN(C(=O)C(C)Cc2ccc(Cl)cc2)CC1 (stereo partly drawn) | 0.067 µM |
| COc1cc(Cl)ccc1C[C@@H](C)C(=O)N1CCN(c2ccc(C)cc2[C@@H](N)CC(C)C)CC1 | 0.0081 µM |
| Cc1ccc(N2CCN(C(=O)[C@H](C)Cc3ccc(Cl)cc3)CC2)c([C@@H](N)CC(C)C)c1 | 0.025 µM |
| CC(C)C[C@H](N)c1cc(C(F)(F)F)ccc1N1CCN(C(=O)[C@@H](C)Cc2ccc(Cl)cc2Cl)CC1 | 0.14 µM |
| CC(C)C[C@H](N)c1cc(C(F)(F)F)ccc1N1CCN(C(=O)CCC(=O)c2ccc(Cl)cc2)CC1 | 0.82 µM |
| CC(C)C[C@H](N)c1cc(C(F)(F)F)ccc1N1CCN(C(=O)CCCC2CCCCC2)CC1 | 4.1 µM |
| CC(C)C[C@H](N)c1cc(C(F)(F)F)ccc1N1CCN(C(=O)CCNC2CCCCC2)CC1 | 4.8 µM |
| CC(C)C[C@H](N)c1cc(C(F)(F)F)ccc1N1CCN(C(=O)COc2cccc(Cl)c2)CC1 | 2.6 µM |
| COc1ccc(CC(C)C(=O)N2CCN(c3ccc(Cl)cc3[C@@H](N)CC(C)C)CC2)cc1 (stereo partly drawn) | 0.16 µM |
| CC(C)C[C@H](N)c1cc(C(F)(F)F)ccc1N1CCN(C(=O)[C@H](C)Cc2ccc(Cl)cc2Cl)CC1 | 0.026 µM |
| CC(C)C[C@H](N)c1cc(C(F)(F)F)ccc1N1CCN(C(=O)COc2ccc(Cl)cc2)CC1 | 2.9 µM |
| CC(C)C[C@H](N)c1cc(C(F)(F)F)ccc1N1CCN(C(=O)CSc2ccc(Cl)cc2Cl)CC1 | 1.5 µM |
| CC(C)C[C@H](N)c1cc(C(F)(F)F)ccc1N1CCN(C(=O)CC(C)C(=O)c2ccc(Cl)cc2)CC1 (stereo partly drawn) | 1.1 µM |
| CC(C)C[C@H](N)c1cc(C(F)(F)F)ccc1N1CCN(C(=O)Cn2cnc3ccccc32)CC1 | 2.1 µM |
| CC(C)C[C@H](N)c1cc(C(F)(F)F)ccc1N1CCN(C(=O)COc2ccc(Cl)cc2Cl)CC1 | 4.2 µM |
| COc1cc(Cl)ccc1C[C@@H](C)C(=O)N1CCN(c2ccc(C(F)(F)F)cc2[C@@H](N)CC(C)C)CC1 | 0.0065 µM |
| Cc1ccc(OCC(=O)N2CCN(c3ccc(C(F)(F)F)cc3[C@@H](N)CC(C)C)CC2)cc1 | 4.4 µM |
| COc1cccc(CC(C)C(=O)N2CCN(c3ccc(C(F)(F)F)cc3[C@@H](N)CC(C)C)CC2)c1 (stereo partly drawn) | 3.1 µM |

---

Reported clearance values follow for various compounds
Experiment: Clearance in mouse at 5 mg/kg, iv
Format: ADME, organism-based
Parameters: dose 5 mg/kg, route intravenous
Conditions: in vivo

| COMPOUND | UNIT STRING | clearance |
| --- | --- | --- |
| Cc1ccc(N2CCN(C(=O)[C@H](C)Cc3ccc(Cl)cc3)CC2)c([C@@H](N)CC(C)C)c1 | mL/min/kg | 33.3 |
| COc1cc(Cl)ccc1CC(C)C(=O)N1CCN(c2ccc(C(F)(F)F)cc2[C@@H](N)CC(C)C)CC1 (some centres not stated) | mL/min/kg | 62.3 |

---

Listing of entries alongside the reported pIC50.
Biological target: UniProtKB P32245
Assay: Activity at MC4R assessed as inhibition of alpha MSH-stimulated cAMP production in HEK293 cells
Assay type: functional, cell-based
pIC50: −log10 of the molar value.

| COMPOUND | pIC50 |
| --- | --- |
| Cc1ccc(N2CCN(C(=O)[C@H](C)Cc3ccc(Cl)cc3)CC2)c([C@@H](N)CC(C)C)c1 | 6.25 |
| COc1cc(Cl)ccc1CC(C)C(=O)N1CCN(c2ccc(C(F)(F)F)cc2[C@@H](N)CC(C)C)CC1 (some centres not stated) | 5.77 |

---

Assay: Volume of distribution in mouse at 5 mg/kg, iv
Type: ADME, organism-based
Set-up: dose 5 mg/kg, route intravenous
Conditions: in vivo, read-out: Vdss

| MOLECULE | UNIT STRING | Vd |
| --- | --- | --- |
| Cc1ccc(N2CCN(C(=O)[C@H](C)Cc3ccc(Cl)cc3)CC2)c([C@@H](N)CC(C)C)c1 | L/kg | 10.2 |
| COc1cc(Cl)ccc1CC(C)C(=O)N1CCN(c2ccc(C(F)(F)F)cc2[C@@H](N)CC(C)C)CC1 (some centres not stated) | L/kg | 10.3 |

---

Target: Melanocortin receptor 3 (Homo sapiens, UniProt P41968)
Sequence (P41968 whole entry): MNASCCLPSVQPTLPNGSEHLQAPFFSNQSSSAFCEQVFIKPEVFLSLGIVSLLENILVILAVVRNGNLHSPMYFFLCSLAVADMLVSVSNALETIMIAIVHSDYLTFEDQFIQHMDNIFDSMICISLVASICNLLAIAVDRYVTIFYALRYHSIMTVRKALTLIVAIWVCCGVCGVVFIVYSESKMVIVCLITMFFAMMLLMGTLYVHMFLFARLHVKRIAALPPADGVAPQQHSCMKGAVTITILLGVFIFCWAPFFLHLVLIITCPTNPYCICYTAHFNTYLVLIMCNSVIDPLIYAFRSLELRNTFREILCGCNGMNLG
pKi: −log10 of the molar value.

| SMILES NOTATION | pKi |
| --- | --- |
| Cc1ccc(N2CCN(C(=O)[C@H](C)Cc3ccc(Cl)cc3)CC2)c([C@@H](N)CC(C)C)c1 | 5.89 |

---

Experiment: Cmax in mouse at 10 mg/kg, po
Assay type: ADME, organism-based
Parameters: dose 10 mg/kg, route oral
Conditions: in vivo

| MOLECULE | Cmax (ng/mL) |
| --- | --- |
| COc1cc(Cl)ccc1CC(C)C(=O)N1CCN(c2ccc(C(F)(F)F)cc2[C@@H](N)CC(C)C)CC1 (some centres not stated) | 99 |
| Cc1ccc(N2CCN(C(=O)[C@H](C)Cc3ccc(Cl)cc3)CC2)c([C@@H](N)CC(C)C)c1 | 267 |

---

Recorded measurements of concentration at 1 h, one per entry
Assay: Drug level in mouse brain at 5 mg/kg, iv after 1 hr
Type: ADME, organism-based
Set-up: dose 5 mg/kg, route intravenous
Conditions: read-out: Drug uptake
READOUT LABEL: concentration at 1 h (ng/g)

| COMPOUND | UNIT STRING | RECORDED NUMBER |
| --- | --- | --- |
| COc1cc(Cl)ccc1CC(C)C(=O)N1CCN(c2ccc(C(F)(F)F)cc2[C@@H](N)CC(C)C)CC1 (some centres not stated) | ng/g | 735 |
| Cc1ccc(N2CCN(C(=O)[C@H](C)Cc3ccc(Cl)cc3)CC2)c([C@@H](N)CC(C)C)c1 | ng/g | 940 |

Data provenance: ChEMBL document CHEMBL1149357
